Biological target: TNF-alpha (Homo sapiens, UniProt P01375 P01375:77-233)
Sequence (P01375 77-233, one chain of several): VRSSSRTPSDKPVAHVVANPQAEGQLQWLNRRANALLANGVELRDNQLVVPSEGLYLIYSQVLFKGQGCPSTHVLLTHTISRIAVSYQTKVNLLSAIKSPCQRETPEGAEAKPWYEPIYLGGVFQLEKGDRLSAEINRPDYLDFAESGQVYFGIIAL
Test: filter; class II; clone 28A printed with the same sequence but no Kd
Details: tags: Genzyme or R&D Systems; chain copies: 3 inferred
pKd: −log10 of the molar value.
measuredQuantity: pKd

{"binder": "TNF 8C (ssRNA) RNA: GGGAGCUCAGAAUAAACGCUCAAGUCCACACUUUGCCGAGCGUCCUAGUGUUCGACAUGAGGCCCGGAUCCGGC", "measuredQuantity": "pKd", "dataValue": 6.37}
